Give viability, T/C for every item shown.
# Test system: 188146-221-R-J1-PDC complex spheroid viability
# measurement protocol: Anticancer human tumor 188146-221-R-J1-PDC patient-derived colon adenocarcinoma cell line growth inhibition [POLQ]
# run parameters: second compound 10 µM; first compound 0.316 µM; stronger effect = lower value

Answered cases to consult:
COc1cccc2c1C(=O)c1c(O)c3c(c(O)c1C2=O)CC(O)(C(=O)CO)CC3OC1CC(N)C(O)C(C)O1 (stereo not given) + COC1C(OC(N)=O)C(O)C(Oc2ccc3c(O)c(NC(=O)c4ccc(O)c(CC=C(C)C)c4)c(=O)oc3c2C)OC1(C)C = 36.5%
CCc1c2c(nc3ccc(O)cc13)-c1cc3c(c(=O)n1C2)COC(=O)[C@]3(O)CC + Nc1ccc(C#CCN(C(=O)Cc2ncc(C(F)(F)F)cc2C(F)(F)F)c2ccc(F)cc2)nn1 = 15.7%
Nc1ccn(C2OC(CO)C(O)C2(F)F)c(=O)n1 (stereo not given) + COC1C(OC(N)=O)C(O)C(Oc2ccc3c(O)c(NC(=O)c4ccc(O)c(CC=C(C)C)c4)c(=O)oc3c2C)OC1(C)C = 16.1%
COc1ccc([C@@H](O)c2cc(-c3ncnc4cc(N5CCOCC5)ccc34)c(F)cc2Cl)nn1 + Cc1cccc(N(C)C(=O)C2C(O)CCN2c2nc(C)cc(C(F)(F)F)c2C#N)c1 = 85.9%

Q: Reported viability, T/C, molecule COc1ccc([C@@H](O)c2cc(-c3ncnc4cc(N5CCOCC5)ccc34)c(F)cc2Cl)nn1 + COC1C(OC(N)=O)C(O)C(Oc2ccc3c(O)c(NC(=O)c4ccc(O)c(CC=C(C)C)c4)c(=O)oc3c2C)OC1(C)C : ____
Ans: 113%

* * *

# Test system: 188146-221-R-J1-PDC complex spheroid viability
# measurement protocol: Anticancer human tumor 188146-221-R-J1-PDC cell line growth inhibition [POLQ];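 further: spheroids exposed to compounds for seven days; 100% = DMSO vehicle control viability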
# run parameters: second compound 0.316 µM; first compound 3.16 µM; stronger effect = lower value
Response field label: string, one of label 1 (viability, T/C strictly below 60%) or label 0.

Illustrative cases are given below, each with its answer.
COc1cc2cc(C(=O)CCC(=O)O)sc2cc1OC + Cc1cccc(N(C)C(=O)C2C(O)CCN2c2nc(C)cc(C(F)(F)F)c2C#N)c1 = label 0
Nc1ccn(C2OC(CO)C(O)C2(F)F)c(=O)n1 (stereo not given) + COC1C(OC(N)=O)C(O)C(Oc2ccc3c(O)c(NC(=O)c4ccc(O)c(CC=C(C)C)c4)c(=O)oc3c2C)OC1(C)C = label 1
COc1cccc2c1C(=O)c1c(O)c3c(c(O)c1C2=O)CC(O)(C(=O)CO)CC3OC1CC(N)C(O)C(C)O1 (stereo not given) + Cc1cccc(N(C)C(=O)C2C(O)CCN2c2nc(C)cc(C(F)(F)F)c2C#N)c1 = label 1
C=CC(=O)N1CCN(c2nc(=O)n(-c3c(C)ccnc3C(C)C)c3nc(-c4c(O)cccc4F)c(F)cc23)C(C)C1 (stereo not given) + Cc1cccc(N(C)C(=O)C2C(O)CCN2c2nc(C)cc(C(F)(F)F)c2C#N)c1 = label 0
CC1COCCN1c1cc(-c2ccnn2C)c2ccnc(-c3ccn[nH]3)c2n1 (stereo not given) + Cc1cccc(N(C)C(=O)C2C(O)CCN2c2nc(C)cc(C(F)(F)F)c2C#N)c1 = label 1

Q: Say whether its viability, T/C is strictly beneath 60%. Entry: O=C(Nc1ccc(O)c(NS(=O)(=O)c2ccc(F)cc2)c1)c1ccc(-c2ccccc2)cc1 + Nc1ccc(C#CCN(C(=O)Cc2ncc(C(F)(F)F)cc2C(F)(F)F)c2ccc(F)cc2)nn1
Ans: label 0

Q: Say whether its viability, T/C is strictly beneath 60%. Entry: CC1COCCN1c1cc(C2(S(C)(=N)=O)CC2)nc(-c2ccnc3[nH]ccc23)n1 (stereo not given) + COC1C(OC(N)=O)C(O)C(Oc2ccc3c(O)c(NC(=O)c4ccc(O)c(CC=C(C)C)c4)c(=O)oc3c2C)OC1(C)C
Ans: label 1

Q: Say whether its viability, T/C is strictly beneath 60%. Entry: CC(C)n1c(=O)n(C)c2cnc3cc(F)c(-c4ccc(OCCCN5CCCCC5)nc4)cc3c21 + Nc1ccc(C#CCN(C(=O)Cc2ncc(C(F)(F)F)cc2C(F)(F)F)c2ccc(F)cc2)nn1
Ans: label 0

Q: Say whether its viability, T/C is strictly beneath 60%. Entry: CCc1cc2c(N3CCc4c(cc(Cn5ccnc5)cc4-c4cn(C)nc4C(F)(F)F)C3=O)ccnc2c(OC)n1 + COC1C(OC(N)=O)C(O)C(Oc2ccc3c(O)c(NC(=O)c4ccc(O)c(CC=C(C)C)c4)c(=O)oc3c2C)OC1(C)C
Ans: label 0

* * *

Give viability, T/C for every item shown.
# Tested on: 188146-221-R-J1-PDC complex spheroid viability
# measurement protocol: Anticancer human tumor 188146-221-R-J1-PDC cell line growth inhibition [POLQ];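 further: spheroids exposed to compounds for seven days; 100% = DMSO vehicle control viability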
# run parameters: second compound 10 µM; first compound 0.316 µM; stronger effect = lower value
Answers are plain numbers, in %.

C#Cc1c(F)ccc2cc(O)cc(-c3ncc4c(N5CC6CCC(C5)N6)nc(OCC56CCCN5CC(F)C6)nc4c3F)c12 (stereo not drawn) + Cc1cccc(N(C)C(=O)C2C(O)CCN2c2nc(C)cc(C(F)(F)F)c2C#N)c1 = 99.8
CC1COCCN1c1cc(C2(O)CC3CCC(C2)O3)c2cnn(-c3ccn[nH]3)c2n1 (stereo not drawn) + COC1C(OC(N)=O)C(O)C(Oc2ccc3c(O)c(NC(=O)c4ccc(O)c(CC=C(C)C)c4)c(=O)oc3c2C)OC1(C)C = 41.8

Please state, for each entry, its recorded viability, T/C.
1. CC(C)n1c(=O)n(C)c2cnc3cc(F)c(-c4ccc(OCCCN5CCCCC5)nc4)cc3c21 + Nc1ccc(C#CCN(C(=O)Cc2ncc(C(F)(F)F)cc2C(F)(F)F)c2ccc(F)cc2)nn1
2. CC1COCCN1c1cc(-c2ccnn2C)c2ccnc(-c3ccn[nH]3)c2n1 (stereo not drawn) + Nc1ccc(C#CCN(C(=O)Cc2ncc(C(F)(F)F)cc2C(F)(F)F)c2ccc(F)cc2)nn1
3. CCc1cc2c(N3CCc4c(cc(Cn5ccnc5)cc4-c4cn(C)nc4C(F)(F)F)C3=O)ccnc2c(OC)n1 + COC1C(OC(N)=O)C(O)C(Oc2ccc3c(O)c(NC(=O)c4ccc(O)c(CC=C(C)C)c4)c(=O)oc3c2C)OC1(C)C
4. CNCc1ccc(-c2[nH]c3cc(F)cc4c3c2CCNC4=O)cc1 + Cc1cccc(N(C)C(=O)C2C(O)CCN2c2nc(C)cc(C(F)(F)F)c2C#N)c1
5. COc1cccc(OCCCN)c1-c1cc(Nc2cnc(C#N)cn2)n[nH]1 + Cc1cccc(N(C)C(=O)C2C(O)CCN2c2nc(C)cc(C(F)(F)F)c2C#N)c1
6. C=CC(=O)N1CCN(c2nc(=O)n(-c3c(C)ccnc3C(C)C)c3nc(-c4c(O)cccc4F)c(F)cc23)C(C)C1 (stereo not drawn) + Cc1cccc(N(C)C(=O)C2C(O)CCN2c2nc(C)cc(C(F)(F)F)c2C#N)c1
7. O=C(c1cc(Cc2n[nH]c(=O)c3ccccc23)ccc1F)N1CCN(C(=O)C2CC2)CC1 + COC1C(OC(N)=O)C(O)C(Oc2ccc3c(O)c(NC(=O)c4ccc(O)c(CC=C(C)C)c4)c(=O)oc3c2C)OC1(C)C
8. COc1cccc(OCCCN)c1-c1cc(Nc2cnc(C#N)cn2)n[nH]1 + COC1C(OC(N)=O)C(O)C(Oc2ccc3c(O)c(NC(=O)c4ccc(O)c(CC=C(C)C)c4)c(=O)oc3c2C)OC1(C)C

Ans:
1. 98.4
2. 33.2
3. 108
4. 100
5. 16.9
6. 91.8
7. 98.8
8. 11.4

* * *

Give viability, T/C for every item shown.
# System: 188146-221-R-J1-PDC complex spheroid viability
# measurement protocol: Anticancer human tumor 188146-221-R-J1-PDC cell line growth inhibition [POLQ];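 further: spheroids exposed to compounds for seven days; 100% = DMSO vehicle control viability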
# run parameters: second compound 0.1 µM; first compound 0.1 µM; stronger effect = lower value

C=CC(=O)N1CCN(c2nc(=O)n(-c3c(C)ccnc3C(C)C)c3nc(-c4c(O)cccc4F)c(F)cc23)C(C)C1 (stereo not drawn) + Cc1cccc(N(C)C(=O)C2C(O)CCN2c2nc(C)cc(C(F)(F)F)c2C#N)c1 = 105%
CCCS(=O)(=O)Nc1ccc(F)c(C(=O)c2c[nH]c3ncc(-c4ccc(Cl)cc4)cc23)c1F + Cc1cccc(N(C)C(=O)C2C(O)CCN2c2nc(C)cc(C(F)(F)F)c2C#N)c1 = 97.3%

Q: Reported viability, T/C, compound C=CCn1c(=O)c2cnc(Nc3ccc(N4CCN(C)CC4)cc3)nc2n1-c1cccc(C(C)(C)O)n1 + Cc1cccc(N(C)C(=O)C2C(O)CCN2c2nc(C)cc(C(F)(F)F)c2C#N)c1 : ____
Ans: 114%

* * *

Give viability, T/C for every item shown.
# Tested on: 188146-221-R-J1-PDC complex spheroid viability
# measurement protocol: Anticancer human tumor 188146-221-R-J1-PDC cell line growth inhibition [POLQ];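 further: spheroids exposed to compounds for seven days; 100% = DMSO vehicle control viability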
# run parameters: second compound 0.316 µM; first compound 0.0316 µM; stronger effect = lower value
One number for each entry, in %.

COc1cc(C2c3cc4c(cc3C(OC3OC5COC(C)OC5C(O)C3O)C3COC(=O)C23)OCO4)cc(OC)c1O (stereo not drawn) + Nc1ccc(C#CCN(C(=O)Cc2ncc(C(F)(F)F)cc2C(F)(F)F)c2ccc(F)cc2)nn1 = 97.1
C=CC(=O)N1CCN(c2nc(=O)n(-c3c(C)ccnc3C(C)C)c3nc(-c4c(O)cccc4F)c(F)cc23)C(C)C1 (stereo not drawn) + Cc1cccc(N(C)C(=O)C2C(O)CCN2c2nc(C)cc(C(F)(F)F)c2C#N)c1 = 101
COc1ccc([C@@H](O)c2cc(-c3ncnc4cc(N5CCOCC5)ccc34)c(F)cc2Cl)nn1 + COC1C(OC(N)=O)C(O)C(Oc2ccc3c(O)c(NC(=O)c4ccc(O)c(CC=C(C)C)c4)c(=O)oc3c2C)OC1(C)C = 107
COc1cc2cc(C(=O)CCC(=O)O)sc2cc1OC + Cc1cccc(N(C)C(=O)C2C(O)CCN2c2nc(C)cc(C(F)(F)F)c2C#N)c1 = 95.9
Nc1ccn(C2OC(CO)C(O)C2(F)F)c(=O)n1 (stereo not drawn) + COC1C(OC(N)=O)C(O)C(Oc2ccc3c(O)c(NC(=O)c4ccc(O)c(CC=C(C)C)c4)c(=O)oc3c2C)OC1(C)C = 41.1
COc1cccc(OCCCN)c1-c1cc(Nc2cnc(C#N)cn2)n[nH]1 + Cc1cccc(N(C)C(=O)C2C(O)CCN2c2nc(C)cc(C(F)(F)F)c2C#N)c1 = 66
C=CC(=O)N1CCN(c2nc(=O)n(-c3c(C)ccnc3C(C)C)c3nc(-c4c(O)cccc4F)c(F)cc23)C(C)C1 (stereo not drawn) + Nc1ccc(C#CCN(C(=O)Cc2ncc(C(F)(F)F)cc2C(F)(F)F)c2ccc(F)cc2)nn1 = 104
CNCc1ccc(-c2[nH]c3cc(F)cc4c3c2CCNC4=O)cc1 + Nc1ccc(C#CCN(C(=O)Cc2ncc(C(F)(F)F)cc2C(F)(F)F)c2ccc(F)cc2)nn1 = 114
COc1cc(C2c3cc4c(cc3C(OC3OC5COC(C)OC5C(O)C3O)C3COC(=O)C23)OCO4)cc(OC)c1O (stereo not drawn) + COC1C(OC(N)=O)C(O)C(Oc2ccc3c(O)c(NC(=O)c4ccc(O)c(CC=C(C)C)c4)c(=O)oc3c2C)OC1(C)C = 103
CCc1cc2c(N3CCc4c(cc(Cn5ccnc5)cc4-c4cn(C)nc4C(F)(F)F)C3=O)cc(C)nc2c(OC)n1 + Nc1ccc(C#CCN(C(=O)Cc2ncc(C(F)(F)F)cc2C(F)(F)F)c2ccc(F)cc2)nn1 = 120

Please state, for each entry, its recorded viability, T/C.
1. O=C(Nc1ccc(O)c(NS(=O)(=O)c2ccc(F)cc2)c1)c1ccc(-c2ccccc2)cc1 + Cc1cccc(N(C)C(=O)C2C(O)CCN2c2nc(C)cc(C(F)(F)F)c2C#N)c1
2. COc1cc2cc(C(=O)CCC(=O)O)sc2cc1OC + COC1C(OC(N)=O)C(O)C(Oc2ccc3c(O)c(NC(=O)c4ccc(O)c(CC=C(C)C)c4)c(=O)oc3c2C)OC1(C)C
3. O=C(c1cc(Cc2n[nH]c(=O)c3ccccc23)ccc1F)N1CCN(C(=O)C2CC2)CC1 + Cc1cccc(N(C)C(=O)C2C(O)CCN2c2nc(C)cc(C(F)(F)F)c2C#N)c1

Ans:
[102, 103, 105]
